Source: the nanobody polyreactivity screen of Harvey et al. (2022)

# test_description: yeast display, Sf9 membrane polyspecificity reagent, FACS + sequencing; frameworks hold sequencing errors
measured_quantity: polyreactivity (PSR sort gate)

The examples below pair each entry with its known result.
[[record]]
sequence_content = "QVQLVESGGGLVQAGGSLRLSCAASGRTFPWYAMGWYRQAPGKERELVATISRSGASTYYADSVKGRFTISRDNAKNTVYLQMNSLKPEDTAVYYCAARLGYATLYSWGQGTQVTVSS"
meas_value = "high polyreactivity"

[[record]]
sequence_content = "QVQLVESGGGLVQAGGSLRLSCAASGPIFAYNAMGWYRQAPGKERELVAAISYSGGSTYYADSVKGRFTISRDNAKNTVYLQMNSLKPEDTAVYYCNAVYRYRTYRYDYWGQGTQVTVSS"
meas_value = "high polyreactivity"

[[record]]
sequence_content = "QVQLVESGGGLFQAGGSLRLSCAASGSTSRYPMGWYRQAQGQERELVAAITRSGGTTYYADSVKGRFTISRDNAKNTVYLQMYSLKPEDTAVYYCATSDRQVKYDYWGQGTQVTVSS"
meas_value = "low polyreactivity"

[[record]]
sequence_content = "QVQLVESGGGLVQAGGSLRLSCAASGSIFYSNAMGWYRQAPGKERELVAAISDGGTSTYYADSVKGRFTISRDNAKNTVYLQMNSLKPEDTAVYYCAAESTLQDWNWYKYYYWGQGTQVTVSS"
meas_value = "low polyreactivity"

[[record]]
sequence_content = "QVQLVESGGGLVQAGGSLRLSCAASGSIFYLYAMGWYRQAPGKERELVASISSDGSTNYADSVKGRFTISRDNAKNTVYLQMNSLKPEDTAVYYCAADEGTGQASLSSNLYDYWGQGTQVTVSS"
meas_value = "low polyreactivity"


[ask] Entry QVQLVESGGGLVQAGGSLSLSCAASGRIFYYNAMGWYRQAPGKERELVAAITRGGSTYYADSVKGRFTISRDNAKNTVYLQMNSLKPEDTAVYYCAADRTGYSRYTTSVKGQRYYYWGQGTQVTVSS : reported polyreactivity (PSR sort gate) = ?
[reply] high polyreactivity

[ask] Entry QVQLVESGGGLVQAGGTLRLSCAASGSIFGKNAMGWYRQARGKERELVAAITWSGGSTYYADSVKGRFTISRDNAKNTVSLQINSLKPEDTAVYYCNAVRVRVTSHRIRQLDYGYWGQGTQVTVSS : reported polyreactivity (PSR sort gate) = ?
[reply] low polyreactivity

[ask] Entry QVHLVESGGGLVQAGGSLRLSCAASGITFGRNTMGWSRQAPGKERELVDAIDSCGNTYADSVKGRFTISRDNAKNTVYLKMNIVNPEDTAVYYCAVDGGEFSSYGEWGQGTQVTVAS : reported polyreactivity (PSR sort gate) = ?
[reply] low polyreactivity
